# Test system: Aerobacter aerogenes 0126
# assayInfo: in vitro antibacterial/antifungal (ABF) agar-disk diffusion test
# Format: cell-based
# experimentalContext: Klebsiella aerogenes, 0.1 mg/ml, read-out: ABF Zone Diameter (cont. in mg/ml) A. Aero-genes
measurementKind: zone of inhibition at 100 µg/mL (mm)
Numeric answer only, unit mm assumed.

As a guide, the following entries are already answered.
compound	unitsText	zone of inhibition at 100 µg/mL
NCCn1nc2c3c(c(N)ccc31)Sc1ccccc1-2 [CH2CH2NH2 / NH2]	mm	17
NCCn1nc2c3c(c([N+](=O)[O-])ccc31)Sc1ccccc1-2 [CH2CH2NH2 / NO2 / 199—203]	mm	18

// compound CN(C)CCn1nc2c3c(c(N)ccc31)Sc1ccccc1-2 [CH2CH2N(CH2)2 / NH2] , assay Aerobacter aerogenes 0126, zone of inhibition at 100 µg/mL value: 14

The measured zone of inhibition at 100 µg/mL that O=[N+]([O-])c1ccc2c3c(nn2CCNCCO)-c2ccccc2Sc13 [CH2CH2NHCH2CH2OH / NO2] showed for Aerobacter aerogenes 0126 is 16

Per the reported Aerobacter aerogenes 0126 data, CCN(CC)CCn1nc2c3c(c(NCCNCCO)ccc31)Sc1ccccc1-2 [CH2CH2N(C2H5)2 / NHCH2CH2NHCH2CH2OH] has zone of inhibition at 100 µg/mL of 15

* * *

# System: Streptococcus faecalis 05045
# assayInfo: in vitro antibacterial/antifungal (ABF) agar-disk diffusion test
# Format: cell-based
# experimentalContext: Enterococcus faecalis, AM-09 medium, 3 mg/ml, read-out: ABF Zone Diameter (cont. in mg/ml) S. Fae-calis
# Method: Still another test protocol is the in vitro antibacterial/antifungal (ABF) test. Compounds are tested for antimicrobial activity in an agar-disk diffusion assay, a standard microbiological technique for testing antibiotics'. After incubation of each culture with a test compound, a zone of inhibition is determined. The zone diameter (mm) of active compounds ranges from a minimum of 13.5 mm to as high as 60 mm, with a greater diameter reflecting higher activity. […]
measurementKind: zone of inhibition at 3000 µg/mL (mm)
Unit mm implied. Number only.

structureAsSmiles	zone of inhibition at 3000 µg/mL (mm)
OCCNCCNc1ccc2c3c(nn2CCNCCO)-c2ccccc2Sc13	0
CCN(CC)CCNc1ccc2c3c(nn2CCN(CC)CC)-c2ccccc2Sc13	15
CCN(CC)CCn1nc2c3c(c(N=CN(C)C)ccc31)Sc1ccccc1-2	0
NCCn1nc2c3c(c([N+](=O)[O-])ccc31)Sc1ccccc1-2	0
CCN(CC)CCn1nc2c3c(c(N)ccc31)Sc1c(O)ccc(O)c1-2	19
CCN(CC)CCn1nc2c3c(c([N+](=O)[O-])ccc31)Sc1ccccc1-2	14

// zone of inhibition at 3000 µg/mL (Streptococcus faecalis 05045) for `NCCn1nc2c3c(c(NCCNCCO)ccc31)Sc1ccccc1-2` = 0

* * *

# System: L1210 cells
# assayInfo: L1210 murine leukemia cell growth inhibition in vitro
# Assay type: cell-based
# experimentalContext: Mus musculus, 72 h, Table 1, three days incubation, 50% inhibition of growth, read-out: L1210 in vitro ID50
# Protocol: Another test protocol uses L1210 cells, a murine leukemia cell line, grown in RPMI 1640 supplemented with 5% fetal bovine serum and gentamicin (50 pg/ml). […] After incubation at 37°C forthree days in 5% C02, the contents of each well are removed and the cells counted in a ZBI Coulter counter. Percent growth are calculated relative to the controls and the levels of drug activity are expressed as ID50 in moles per liter.
pIC50: −log10 of the molar value.
We use 7 as the dividing line for pIC50: on or above the line is Y, below is N.

compound	className
NCCn1nc2c3c(c(NCCNCCO)ccc31)Sc1ccccc1-2	Y
CCN(CC)CCNc1ccc2c3c(nn2CCNCCO)-c2ccccc2Sc13	N
CCN(CC)CCn1nc2c3c(c(NCCN4CCOC4=O)ccc31)Sc1ccccc1-2	N
CCN(CC)CCn1nc2c3c(c(NCCCN)ccc31)Sc1ccccc1-2	N

// switching to the query compound
Dear colleague, could you confirm whether `CCN(CC)CCn1nc2c3c(c(NCCN)ccc31)Sc1ccccc1-2` has pIC50 at or above 7?
Y

* * *

Quick list: pIC50 per entry.
# System: L1210 cells
# assayInfo: L1210 murine leukemia cell growth inhibition in vitro
# Type: cell-based
# experimentalContext: Mus musculus, 72 h, Table 1, three days incubation, 50% inhibition of growth, read-out: L1210 in vitro ID50
// pIC50 is dimensionless: -log10 of concentration (M)

molecule	targetOrTestSystem	pIC50
CN(C)CCn1nc2c3c(c(N)ccc31)Sc1ccccc1-2 [CH2CH2N(CH2)2 / NH2]	L1210 cells	7.10
CN(C)CCCn1nc2c3c(c(N)ccc31)Sc1ccccc1-2 [CH2CH2CH2N(CH3)2 / NH2]	L1210 cells	5.70
O=[N+]([O-])c1ccc2c3c(nn2CCNCCO)-c2ccccc2Sc13 [CH2CH2NHCH2CH2OH / NO2]	L1210 cells	7.70

CCN(CC)CCn1nc2c3c(c([N+](=O)[O-])ccc31)Sc1ccccc1-2 [CH2CH2N(CH2H5)2 / HO2] yielded pIC50 of 7.25

* * *

Each record here notes measured IC50.
# Tested on: HCT-8 cells
# assayInfo: in vitro proliferating human colon adenocarcinoma (HCA) cell screen
# Assay type: cell-based
# experimentalContext: Table 1, 60 to 65 hours with compound, 50% inhibition of growth, read-out: HCA—3 in vitro ID50
Structures can show the parent of a compound that is named as a salt.
// note: answer is a bare numeric in nM

Here are 4 compounds together with their reported answers.
compound	IC50 [nM]
CCNCCn1nc2c3c(c([N+](=O)[O-])ccc31)Sc1ccccc1-2 [CH2CH2NHC2H5 / NO2 / C17H16N4O2S·HCl]	140
CCN(CC)CCn1nc2c3c(c(N)ccc31)Sc1ccccc1-2 [CH2CH2N(C2H5)2 / NH2]	1100
CCN(CC)CCn1nc2c3c(c(NCCN)ccc31)Sc1ccccc1-2 [CH2CH2N(C2H5)2 / NHCH2CH2NH2]	97
CN(C)CCCn1nc2c3c(c([N+](=O)[O-])ccc31)Sc1ccccc1-2 [CH2CH2CH2N(CH3)2 / NO2]	210

Note to self: IC50 of CCN(CC)CCn1nc2c3c(c(NCCNCCO)ccc31)Sc1ccccc1-2 [CH2CH2N(C2H5)2 / NHCH2CH2NHCH2CH2OH] with HCT-8 cells was 200

Form: item CCN(CC)CCNc1ccc2c3c(nn2CCNCCO)-c2ccccc2Sc13 [CH2CH2NHCH2CH2OH / NHCH2CH2N(C2H5)2] ; test system HCT-8 cells; IC50: 450

Let me check: CCNCCn1nc2c3c(c(N)ccc31)Sc1ccccc1-2 [CH2CH2NHC2H5 / NO2 / C17H18N4S·2HCl] , system HCT-8 cells, measured IC50 is 300

* * *

# Test system: Escherichia coli 04863
# assayInfo: in vitro antibacterial/antifungal (ABF) agar-disk diffusion test
# Format: cell-based
# experimentalContext: 0.1 mg/ml, read-out: ABF Zone Diameter (cont. in mg/ml) E. Coli
# Protocol: Still another test protocol is the in vitro antibacterial/antifungal (ABF) test. Compounds are tested for antimicrobial activity in an agar-disk diffusion assay, a standard microbiological technique for testing antibiotics'. After incubation of each culture with a test compound, a zone of inhibition is determined. The zone diameter (mm) of active compounds ranges from a minimum of 13.5 mm to as high as 60 mm, with a greater diameter reflecting higher activity. […]
measurementKind: zone of inhibition at 100 µg/mL (mm)
Please respond with the number in mm and leave the unit unwritten.

structureAsSmiles	zone of inhibition at 100 µg/mL / mm
O=[N+]([O-])c1ccc2c3c(nn2CCNCCO)-c2ccccc2Sc13	16

Value of zone of inhibition at 100 µg/mL reported for the compound `CN(C)CCn1nc2c3c(c([N+](=O)[O-])ccc31)Sc1ccccc1-2` is 14

Summary for this compound, `CCN(CC)CCNc1ccc2c3c(nn2CCN(CC)CC)-c2ccccc2Sc13` : zone of inhibition at 100 µg/mL is 18

So for `NCCn1nc2c3c(c([N+](=O)[O-])ccc31)Sc1ccccc1-2` , the logged zone of inhibition at 100 µg/mL turned out to be 15

* * *

# System: L1210 cells
# assayInfo: L1210 murine leukemia cell growth inhibition in vitro
# Format: cell-based
# experimentalContext: Mus musculus, 72 h, Table 1, three days incubation, 50% inhibition of growth, read-out: L1210 in vitro ID50
pIC50: −log10 of the molar value. Counter-ions that a name gives are not always drawn.
Assign criterion met whenever pIC50 does not fall below 7; assign criterion not met whenever it does.

Here are 5 compounds together with their reported answers.
compound	className
O=C1OCCN1CCNc1ccc2c3c(nn2CCNCCO)-c2ccccc2Sc13 [CH2CH2NHCH0H2OH /]	criterion not met
CCN(CC)CCn1nc2c3c(c(NC(=O)CCl)ccc31)Sc1ccccc1-2 [CH2CH2N(C2H5)2 / NHCOCH2Cl]	criterion not met
CN(C)CCCn1nc2c3c(c(NCCN)ccc31)Sc1ccccc1-2 [(CH2)3N(CH3)2 / NHCH2CH2NH2]	criterion met
CCNCCn1nc2c3c(c([N+](=O)[O-])ccc31)Sc1ccccc1-2 [CH2CH2NHC2H5 / NO2 / C17H16N4O2S·HCl]	criterion met
OCCNCCNc1ccc2c3c(nn2CCNCCO)-c2ccccc2Sc13 [CH2CH2NHCH2CH2OH / NHCH2CH2NHCH2CH2OH]	criterion not met

Now for another entry.
Is pIC50 for CN(C)CCCn1nc2c3c(c([N+](=O)[O-])ccc31)Sc1ccccc1-2 [CH2CH2CH2N(CH3)2 / NO2] at or above 7?
criterion not met
